Test system: UACC-257 melanoma
Assay: NCI tumour cell line growth inhibition, 48 h
metric: TGI (µM)

INSERT INTO results (molecule, value_qualifier, measured_value) VALUES
  ('Nc1ccccc1C#Cc1ccccc1C#CCCCCO', '=', 50.9),
  ('C=C1C(=O)O[C@H]2[C@@H](O)[C@H](C)CCC/C(C)=C/CC[C@@]3(C)O[C@@H]3C[C@@H]12', '=', 22.4),
  ('COc1cc([N+](=O)[O-])c2ncccc2c1O', '=', 7.65),
  ('COc1cc(/C=C/C=C2\CC(C)C/C(=C\C=C\c3ccc(O)c(OC)c3)C2=O)ccc1O (stereo unspecified)', '=', 89.7),
  ('Fc1ccc(-c2c(-c3ccncc3)n(CCN3CCOCC3)c3cccnc23)cc1', '>', 25),
  ('Cc1cc(C(C)(C)C)c(OCCCN2CCOCC2)c(C(C)(C)C)c1', '=', 32),
  ('Clc1ccc(CCN2CCOCC2)c(Cl)c1', '>', 100),
  ('CCCCCCCCSC(SCCCCCCCC)=C1C(=O)N(c2ccccc2)N=C1C', '=', 93.1),
  ('NC(=S)NS(=O)(=O)c1ccc(Cl)cc1Cl', '>', 100),
  ('CCSc1nn(-c2c3ccccc3nc3ccccc23)c(=S)s1', '>', 100);

* * *

The entries below come with measured TGI values attached.
Tested on: SNB-75 CNS
Experiment: NCI tumour cell line growth inhibition, 48 h
metric: TGI

INSERT INTO results (molecule, measured_value) VALUES
  ('CC1(C)CN=C(c2ccc3ccccc3c2O)N1', '> 100 µM'),
  ('O=C1CCC(c2ccccc2)(c2ccccc2)CC1', '> 100 µM'),
  ('CCOC(=O)c1c(C)n(CCN2CCN(C)CC2)c2ccc(OC)cc12', '> 100 µM'),
  ('CC(Cl)CC(=O)Nc1ccc2c(c1)oc(=O)c1cc(NC(=O)CC(C)Cl)ccc12 (stereo not given)', '48.7 µM'),
  ('C/C(=N\n1c(N)c(C#N)c(-c2ccc(Cl)cc2)c(C#N)c1=O)c1cccnc1', '99.6 µM'),
  ('CC1=C[C@H]2C[C@@]3(C)O[C@@H]([C@]4(C)CC[C@H]([C@@H](C)C(=O)O)OO4)CC3C(C)(C)[C@H]2CC1 (stereo not given in full)', '2.35 µM'),
  ('S=C1OC2C3C4CC5C3C(O1)C1C5C4C21 (stereo not given)', '> 100 µM'),
  ('Fc1ccc(-c2c(-c3ccncc3)n(CCN3CCOCC3)c3cccnc23)cc1', '> 25 µM'),
  ('Fc1ccccc1C1SCC2=Nc3ccccc3CN21 (stereo not given)', '> 100 µM'),
  ('CCn1c2ccccc2c2cc(NC(=O)c3c(C)[nH]c(=O)[nH]c3=S)ccc21', '> 100 µM');

* * *

The entries below come with measured TGI values attached.
Tested on: SF-295 CNS
Experiment: NCI tumour cell line growth inhibition, 48 h
metric: TGI

INSERT INTO assay_data (smiles_structure, measured_value) VALUES
  ('O=c1c2c(=NCCCN3CCCC3)cc3c(=O)n(CCCN4CCCC4)c(=O)c4c(NCCCN5CCCC5)cc(c(O)n1CCCN1CCCC1)c2c4-3', '8.61 µM'),
  ('c1csc(-c2csc(-c3cccs3)c2)c1', '> 100 µM'),
  ('Cn1cc(/C=C2\C(=O)Nc3cccnc32)c2ccccc21', '> 25 µM'),
  ('Cc1ccc(C)c2sc3cc(=O)ccc-3nc12', '> 100 µM'),
  ('CN1C=CN(Cc2ccc(-c3ccccn3)nc2)[CH-]1.CN1C=CN(Cc2ccc(-c3ccccn3)nc2)[CH-]1.[Au+3]', '> 100 µM');

* * *

Test system: RPMI-8226 leukemia
Assay: NCI tumour cell line growth inhibition, 48 h
metric: GI50

INSERT INTO results (compound, measured_value) VALUES
  ('C=C1C(=O)O[C@H]2[C@H](OC(C)=O)[C@@H](C)CCC/C(C)=C/CC[C@]3(CO3)[C@H](O)C[C@@H]12', '1840 nM'),
  ('Cc1cc(C#Cc2ccccc2)ccc1-n1c(/C=C/c2ccc(O)cc2)nc2ccccc2c1=O', '2330 nM'),
  ('N#CC(C#N)=C/C=C/c1cccc([N+](=O)[O-])c1', '1590 nM'),
  ('Fc1cc(Nc2ccc3c(OCCCN4CCOCC4)cccc3n2)ccc1Cl', '2640 nM'),
  ('O=C(N/N=C\c1cc(Cl)ccc1O)N/N=C/c1cc(Cl)ccc1O', '2790 nM'),
  ('COc1cc([N+](=O)[O-])c2ncccc2c1O', '27700 nM'),
  ('CC(=O)OCC1OC(O[C@@H]2C[C@H]3C(C)(C)[C@H](OC(C)=O)CC[C@]3(C)[C@H]3CC[C@@H]4[C@]5(CC[C@@]4(C)[C@@]32C)O[C@@H]([C@H](O)C(C)(C)O)C[C@@H]5C)C(O)C(O)C1O (stereo partly drawn)', '3370 nM'),
  ('CN1C=CN(Cc2ccc(-c3ccccn3)nc2)[CH-]1.CN1C=CN(Cc2ccc(-c3ccccn3)nc2)[CH-]1.[Au+3]', '1340 nM'),
  ('O=C(O)c1c(Cl)c(Cl)c(Cl)c(Cl)c1-c1c2cc(I)c(=O)c(I)c-2oc2c(I)c(O)c(I)cc12', '122000 nM'),
  ('CCOc1ccc(N2C(N)=NC(N)=NC2(C)C)cc1', '> 100000 nM'),
  ('O=C(/C=C/c1cccs1)Nc1ncc(Cc2ccccc2F)s1', '330 nM'),
  ('Cn1cc(/C=C2\C(=O)Nc3cccnc32)c2ccccc21', '> 25000 nM'),
  ('O=c1c2c(=NCCCN3CCCC3)cc3c(=O)n(CCCN4CCCC4)c(=O)c4c(NCCCN5CCCC5)cc(c(O)n1CCCN1CCCC1)c2c4-3', '4390 nM');

* * *

Tested on: KM12 colon
Test: NCI tumour cell line growth inhibition, 48 h; in the data active = GI50 below about 0.43 µM; inactive = the rest
Outcomes: 1 (yes) = active, 0 (no) = inactive

INSERT INTO results (smiles_structure, cat) VALUES
  ('CN(C)c1ccc(/C=N/Nc2ccc(-c3nc4ccccc4[nH]3)cc2)cc1', '0 (no)'),
  ('CCN(CC)c1ccc(/C=N\NC(=O)c2cccc(Nc3ccnc(C(F)(F)F)c3)c2)c(O)c1', '1 (yes)'),
  ('C/C(=N\n1c(N)c(C#N)c(-c2ccc(Cl)cc2)c(C#N)c1=O)c1cccnc1', '0 (no)'),
  ('CCc1ccc(/C=C2/SC(=S)NC2=O)cc1', '0 (no)'),
  ('C[C@@H]1CC[C@H]2C(CN3CCN(CC4=C(C(F)(F)F)O[C@@H]5O[C@@]6(C)CC[C@H]7[C@H](C)CC[C@@H]4[C@@]57OO6)CC3)=C(C(F)(F)F)O[C@@H]3O[C@@]4(C)CC[C@@H]1[C@]32OO4', '0 (no)'),
  ('COCCOCCOCCOCCOc1ccc2c(c1)C(=O)c1nc3ncccc3c(=O)n1-2', '0 (no)'),
  ('C[C@H]1CC(=O)[C@@]2(O)C#C/C=C\C#C[C@@H]3Nc4c(cc(O)c5c4C(=O)c4ccccc4C5=O)[C@]24O[C@]314', '1 (yes)'),
  ('CCn1c(-c2cc3ccccc3cc2OC(=O)c2ccccc2)n[nH]c1=S', '0 (no)');

* * *

Tested on: TK-10 renal
Experiment: NCI tumour cell line growth inhibition, 48 h
The entries below come with measured TGI values attached.
metric: TGI

INSERT INTO results (compound, measured_value) VALUES
  ('CCOc1ccc(N2C(N)=NC(N)=NC2(C)C)cc1', '> 100 µM'),
  ('COc1cc(/C=C/C=C2\CC(C)C/C(=C\C=C\c3ccc(O)c(OC)c3)C2=O)ccc1O (stereo unspecified)', '16 µM'),
  ('COCCOCCOCCOCCOc1ccc2c(c1)C(=O)c1nc3ncccc3c(=O)n1-2', '2.69 µM'),
  ('CNc1ccc([N+](=O)[O-])cc1C(=O)N1CCC[C@H]1CO', '> 100 µM'),
  ('O=C1C(=O)C(CCCO)(CCCO)CCCCCCCCC1(CCCO)CCCO', '> 100 µM'),
  ('NC(Cc1ccccc1)C(=O)O (stereo unspecified)', '> 100 µM'),
  ('O=[N+]([O-])c1ccc(-c2nc3ccccc3o2)cc1', '> 100 µM'),
  ('CC(=O)Nc1oc(C)nc1C#N', '> 100 µM'),
  ('CN(CCc1ccccn1)C(=S)N/N=C/c1ccccn1', '0.668 µM'),
  ('Cc1cc(I)cc(CN(C)CCCCN2CCCC2)c1O', '50.7 µM'),
  ('CC(C)c1cc2c(O)c(c1)Cc1cc(C(C)C)cc(c1O)Cc1cc(C(C)C)cc(c1O)Cc1cc(C(C)C)cc(c1O)Cc1cc(C(C)C)cc(c1O)Cc1cc(C(C)C)cc(c1O)C2', '> 100 µM');

Hello, the source for this data is PubChem BioAssay (NCI), in case you need it.
